Would you mind telling me the reported TGI of each entry?
# Test system: UACC-257 melanoma
# Protocol Description: NCI tumour cell line growth inhibition, 48 h

Please report the recorded TGI for O=[N+]([O-])O.[Ga] .
> 10000 µM

Please report the recorded TGI for CN(C)CC1(C)CC/C(=C\c2ccccc2)C1=O (stereo not drawn) .
> 100 µM

Please report the recorded TGI for c1cncc(-c2ncc3cccnc3n2)c1 .
> 100 µM

---

# Tested on: EKVX NSCLC
# Protocol Description: NCI tumour cell line growth inhibition, 48 h
Would you mind telling me the reported TGI of each entry?
Give your result in µM as a bare value.

Please report the recorded TGI for O=C(/C=C\c1ccc(Cl)cc1Cl)c1cccs1 .
34.3

Please report the recorded TGI for CCN(CC)CCCNc1nc2ccccc2c2[nH]c3ccc(OC)cc3c12 .
3.31

Please report the recorded TGI for Cc1cc(O)cc2c1O[C@@]1(C)CCC3[C@@]4(C)CC[C@H](O)C(C)(C)C4CC[C@@]3(C)[C@H]1C2 (stereo not given in full) .
31.4

Please report the recorded TGI for NS(=O)(=O)c1ccc(CNc2nc(-c3cccs3)nc3ccc(I)cc23)cc1 .
29.3
